# target.system: purified HLA-B*57:01 (Homo sapiens, UniProt P01889, D201E/D98Y/E176V/E187L/E204Q/E69M/E70A/G107R/I90N/K202T/L105A/L119I/N104I/N87E/Q89R/Q94S/R106L/R155S/R180L/R86G/S101N/S121V/S35A/S48A/T118I/V36M/Y140S/Y91M)
# test.protocol: HLA binding assay: inhibition of binding of a radiolabeled standard peptide to purified HLA-B*57:01 (competition)
# condition.summary: 0.5 mg/mL acyclovir; Mean ± SEM; p < 0.01 vs vehicle; S5 Fig; unit inferred; read-out: IC-50 for HLA-B*57:01, 0.5 mg/mL acyclovir
Ends that are not written are not given here.
experimental.readout: pIC50
Remember, pIC50 is on a log scale: it is -log10 of the molar concentration.

Prompt: For the sequence shown here, `RARQLNYTI` , give the reported pIC50.
Response: 8.15
